tested on: PDE4B (Homo sapiens, UniProt Q07343)
Sequence (Q07343 whole entry, species assumed): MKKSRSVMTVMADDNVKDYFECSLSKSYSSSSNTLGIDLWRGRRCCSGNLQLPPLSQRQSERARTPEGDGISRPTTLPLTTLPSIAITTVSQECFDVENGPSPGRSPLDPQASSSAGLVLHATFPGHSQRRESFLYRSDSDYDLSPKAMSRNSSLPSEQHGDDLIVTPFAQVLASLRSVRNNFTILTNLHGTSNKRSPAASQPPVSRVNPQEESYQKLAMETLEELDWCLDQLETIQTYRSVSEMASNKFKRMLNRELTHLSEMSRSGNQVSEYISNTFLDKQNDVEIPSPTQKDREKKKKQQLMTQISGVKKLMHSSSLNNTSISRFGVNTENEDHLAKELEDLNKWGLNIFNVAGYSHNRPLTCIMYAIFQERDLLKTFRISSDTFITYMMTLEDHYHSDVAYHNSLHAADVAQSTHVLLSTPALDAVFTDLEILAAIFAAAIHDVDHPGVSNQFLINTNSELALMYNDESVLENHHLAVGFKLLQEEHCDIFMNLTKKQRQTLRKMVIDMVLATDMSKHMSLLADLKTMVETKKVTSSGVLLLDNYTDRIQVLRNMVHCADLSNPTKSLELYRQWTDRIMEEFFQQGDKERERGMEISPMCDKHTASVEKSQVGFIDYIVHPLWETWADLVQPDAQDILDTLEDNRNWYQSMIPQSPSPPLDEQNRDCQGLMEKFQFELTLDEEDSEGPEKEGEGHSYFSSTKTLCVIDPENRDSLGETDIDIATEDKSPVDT
assay notes: Scintillation Proximity Assay (SPA) of PDE4B enzyme activity ([H3]-cAMP cleavage)
Format: biochemical
measurement parameters: test substance 1 μM; one-hour incubation of [H3]-cAMP with PDE4B enzyme at 30° C.
quantity kind: inhibition at 1 µM (%)

[O-][S+]1CCc2nc(N3CCC(c4noc5cc(F)ccc45)CC3)nc(Nc3cccc(F)c3)c21 (stereo not shown)    95
Cc1cccc(C2CCN(c3nc4c(c(NC5CCOCC5)n3)[S+]([O-])CC4)CC2)c1 (stereo not shown)    93
[O-][S+]1CCc2nc(N3CCC(c4ccncc4)CC3)nc(Nc3cccc(F)c3)c21 (stereo not shown)    96
CC(C)[C@H](CO)Nc1nc(N2CCC(c3nc(-c4cccnc4)no3)CC2)nc2c1[S+]([O-])CC2 (stereo partly shown)    92
COC(=O)c1cccc(C2CCN(c3nc4c(c(Nc5cccc(F)c5)n3)[S+]([O-])CC4)CC2)c1 (stereo not shown)    96
N#Cc1ccc(C2CCN(c3nc4c(c(NC5(CO)CC5)n3)[S+]([O-])CC4)CC2)cc1 (stereo not shown)    95
CCOC(=O)c1ccc2c(C3CCN(c4nc5c(c(NC6(CO)CC6)n4)[S+]([O-])CC5)CC3)c[nH]c2c1 (stereo not shown)    97

----------
tested on: PDE4B (Homo sapiens)
assay notes: Scintillation Proximity Assay (SPA) of PDE4B enzyme activity ([H3]-cAMP cleavage)
Assay type: biochemical
measurement parameters: test substance 1 μM; one-hour incubation of [H3]-cAMP with PDE4B enzyme at 30° C.
quantity kind: inhibition at 1 µM (%)

[O-][S+]1CCc2nc(N3CCC(c4noc5ccccc45)CC3)nc(NC3CCOCC3)c21 (stereo not shown)    97
[O-][S+]1CCc2nc(N3CCC(c4nnc5ccccn45)CC3)nc(NC3CCOCC3)c21 (stereo not shown)    89
[O-][S+]1CCc2nc(N3CCC(c4cccc(Cl)c4)CC3)nc(NC3CCOCC3)c21 (stereo not shown)    93
CCc1[nH]c2ccc(F)cc2c1C1CCN(c2nc3c(c(Nc4cccc(F)c4)n2)[S+]([O-])CC3)CC1 (stereo not shown)    92

----------
tested on: PDE4B (Homo sapiens, UniProt Q07343)
assay notes: Scintillation Proximity Assay (SPA) of PDE4B enzyme activity ([H3]-cAMP cleavage)
Type: biochemical
measurement parameters: test substance 1 μM; one-hour incubation of [H3]-cAMP with PDE4B enzyme at 30° C.
quantity kind: inhibition at 1 µM (%)

Below, 2 compounds whose answers are already recorded.
[O-][S+]1CCc2nc(N3CCC(c4ccc(Br)cc4)CC3)nc(NC3CCOCC3)c21 (stereo not shown)    94
[O-][S+]1CCc2nc(N3CCC(c4ccc(Br)cc4)CC3)nc(NC3(CO)CC3)c21 (stereo not shown)    94

A = [O-][S+]1CCc2nc(N3CCC(c4nc(-c5cccnc5)no4)CC3)nc(NC3(CO)CC3)c21 (stereo not shown)
B = CC(C)[C@H](CO)Nc1nc(N2CCC3(CC2)OCc2ccccc23)nc2c1[S+]([O-])CC2 (stereo partly shown)
# compare inhibition at 1 µM for A vs B ; return the one with the smaller value State the label of the item chosen.
B

----------
tested on: PDE4B (Homo sapiens, UniProt Q07343)
assay notes: Scintillation Proximity Assay (SPA) of PDE4B enzyme activity ([H3]-cAMP cleavage)
Type: biochemical
measurement parameters: test substance 1 μM; one-hour incubation with [H3]-cAMP at 30° C.
quantity kind: inhibition at 1 µM (%)

[O-][S+]1CCc2nc(N3CCC(Oc4ccc(F)cc4)CC3)nc(NC3(CO)CC3)c21 (stereo not shown)    91
[O-][S+]1CCc2nc(N3CCC(c4cc(-c5cccs5)[nH]n4)CC3)nc(NC3(CO)CC3)c21 (stereo not shown)    90
N#CC1(c2ccc(F)cc2)CCN(c2nc3c(c(NC4(CO)CC4)n2)[S+]([O-])CC3)CC1 (stereo not shown)    93
CC(C)(C)OC(=O)N[C@@H]1CC1Nc1nc(N2CCC(c3ccc(Cl)cc3)CC2)nc2c1[S+]([O-])CC2 (stereo partly shown)    89
[O-][S+]1CCc2nc(N3CCC(c4n[nH]c5ccccc45)CC3)nc(NC3CCOCC3)c21 (stereo not shown)    94
Cn1c(C2CCN(c3nc4c(c(NC5CCOCC5)n3)[S+]([O-])CC4)CC2)nc2cnccc21 (stereo not shown)    85
COCC(=O)N(C)CC1(c2ccccc2)CCN(c2nc3c(c(NC4CCOCC4)n2)[S+]([O-])CC3)CC1 (stereo not shown)    94
CN(C(=O)c1ccc(C2CCN(c3nc4c(c(NC5CCOCC5)n3)[S+]([O-])CC4)CC2)cc1)C1CC1 (stereo not shown)    94
CC(=O)N(C)CC1(c2ccccc2)CCN(c2nc3c(c(N[C@H]4CCC(=O)N(C)C4)n2)[S+]([O-])CC3)CC1 (stereo partly shown)    94
CC(C)(NC(=O)c1ccc(OC2CCN(c3nc4c(c(NC5CCOCC5)n3)[S+]([O-])CC4)CC2)cc1)c1ccncc1 (stereo not shown)    95
Cc1nn(C)cc1CNC(=O)c1ccc(C2CCN(c3nc4c(c(NC5CCOCC5)n3)[S+]([O-])CC4)CC2)cc1 (stereo not shown)    94
N#CC1(c2ccc(F)cc2)CCN(c2nc3c(c(NC4CCOCC4)n2)[S+]([O-])CC3)CC1 (stereo not shown)    86
CC(C)[C@H](CO)Nc1nc(N2CCC(Oc3ccc(F)cc3)CC2)nc2c1[S+]([O-])CC2 (stereo partly shown)    89
O=C(c1ccc(C2CCN(c3nc4c(c(NC5CCOCC5)n3)[S+]([O-])CC4)CC2)cc1)N(C1CCOCC1)C1CC1 (stereo not shown)    89
O=C(c1cccc(C2CCN(c3nc4c(c(NC5CCOCC5)n3)[S+]([O-])CC4)CC2)c1)N1CCOCC1 (stereo not shown)    90
CN1C[C@@H](Nc2nc(N3CCC(Oc4ccc(C5=NCCO5)cc4)CC3)nc3c2[S+]([O-])CC3)CCC1=O (stereo partly shown)    96
CC(C)[C@H](CO)Nc1nc(N2CCC(COCc3ccccc3)(c3ccc(Cl)cc3)CC2)nc2c1[S+]([O-])CC2 (stereo partly shown)    89
CN1C[C@@H](Nc2nc(N3CCC(c4cc[n+]([O-])cc4)CC3)nc3c2[S+]([O-])CC3)CCC1=O (stereo partly shown)    94
[O-][S+]1CCc2nc(N3CCC(c4nc5ccc(Cl)cc5[nH]4)CC3)nc(NC3CCOCC3)c21 (stereo not shown)    96
CN(C(=O)c1ccc(C2CCN(c3nc4c(c(NC5CCOCC5)n3)[S+]([O-])CC4)CC2)cc1)C1CCOCC1 (stereo not shown)    93
CN(CC1(c2ccccc2)CCN(c2nc3c(c(Nc4cccc(F)c4)n2)[S+]([O-])CC3)CC1)S(C)(=O)=O (stereo not shown)    93
[O-][S+]1CCc2nc(N3CCC(c4nc(-c5ccccc5)no4)CC3)nc(NC3CCOCC3)c21 (stereo not shown)    92
COCC1(c2ccc(Cl)cc2)CCN(c2nc3c(c(N[C@H]4CCC(=O)N(C)C4)n2)[S+]([O-])CC3)CC1 (stereo partly shown)    96
CC(C)c1ccc(OC2CCN(c3nc4c(c(N[C@H]5CCC(=O)N(C)C5)n3)[S+]([O-])CC4)CC2)cc1 (stereo partly shown)    78
COC1(c2cc(F)cc(F)c2)CCN(c2nc3c(c(N[C@H]4CCC(=O)N(C)C4)n2)[S+]([O-])CC3)CC1 (stereo partly shown)    94
CN(CC1(c2ccccc2)CCN(c2nc3c(c(NC4(CO)CC4)n2)[S+]([O-])CC3)CC1)S(C)(=O)=O (stereo not shown)    92
[O-][S+]1CCc2nc(N3CCC(CO)(c4ccc(Cl)cc4)CC3)nc(NC3CCOCC3)c21 (stereo not shown)    87
CS(=O)(=O)NCC1(c2ccccc2)CCN(c2nc3c(c(Nc4cccc(F)c4)n2)[S+]([O-])CC3)CC1 (stereo not shown)    83
